Test protocol: Rat oral dose escalation PK study
Format: in vivo
Experimental setup: Sprague-Dawley, plasma; rat, oral, 3 mg/kg
Measure: Cmax (ng/mL)
Expressed in ng/mL, but write only the number.

Would you mind telling me what Cmax value was observed for [2H]C1([2H])c2ncccc2C(=O)N1Cc1c(F)cc(-c2cccc3nn(C([2H])([2H])[2H])cc23)cc1F [compound 5] ? 1250

* * *

Test protocol: Rat 14-day exploratory toxicology and toxicokinetic study
Format: in vivo
Experimental setup: rat 14-day study, day 14, 750 mg/kg PO of 5; plasma
Reported Cmax at 14 days is given for each of the following compounds.
Expressed in ng/mL, but write only the number.

Compound	Readout value
[2H]C1(O)c2ncccc2C(=O)N1Cc1c(F)cc(-c2cccc3nn(C([2H])([2H])[2H])cc23)cc1F (centres unmarked) [compound 6]	7340

Next item in the queue.
Would you mind telling me what Cmax at 14 days value was observed for [2H]C1([2H])c2ncccc2C(=O)N1Cc1c(F)cc(-c2cccc3nn(C([2H])([2H])[2H])cc23)cc1F [compound 5] ? 31300
